Target: 5-hydroxytryptamine receptor 6 (Homo sapiens, UniProt P50406)
Sequence (P50406 whole entry): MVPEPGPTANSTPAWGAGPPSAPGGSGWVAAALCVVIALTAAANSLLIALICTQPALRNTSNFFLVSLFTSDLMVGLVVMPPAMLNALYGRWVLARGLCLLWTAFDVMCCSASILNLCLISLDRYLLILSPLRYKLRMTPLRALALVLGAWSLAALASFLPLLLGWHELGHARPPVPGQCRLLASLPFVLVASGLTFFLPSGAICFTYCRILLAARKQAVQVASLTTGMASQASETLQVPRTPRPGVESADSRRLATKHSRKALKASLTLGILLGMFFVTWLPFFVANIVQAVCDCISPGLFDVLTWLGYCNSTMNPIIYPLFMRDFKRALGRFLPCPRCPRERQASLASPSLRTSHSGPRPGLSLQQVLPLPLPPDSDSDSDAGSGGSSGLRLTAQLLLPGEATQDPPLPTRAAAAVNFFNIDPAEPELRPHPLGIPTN
Experiment: Inhibition of human recombinant 5-HT6 receptor expressed in human HEK293 cells assessed as inhibition of serotonin-induced cAMP accumulation
Format: functional, cell-based
Settings: read-out: Ki
MEASURE NAME: Ki (nM)

{"SMILES": "CSc1nn2c(N3CCNCC3)c3c(nc2c1S(=O)(=O)c1ccccc1)CCC3", "Ki / nM": 0.85}

I: CNc1nn2c(NCCCN(C)C)cc(C)nc2c1S(=O)(=O)c1ccccc1
II: CNc1nn2c(N)c(Cl)c(C)nc2c1S(=O)(=O)c1ccccc1
Ask: Between these two entries, I and II , state which has the higher Ki. State the label of the item chosen.
Reply: I
(I: 112 nM, II: 0.14 nM)
